System: SH-SY5Y
Test: Cytotoxicity against human SH-SY5Y cells at 1 to 80 uM by MTT assay
Format: toxicity, cell-based
Conditions: dose 1-80 µM
Metric Name: Activity

Worked examples, 5 molecules total:
C/C(=N\NCN1C(=O)S/C(=C\c2ccc(OCc3ccccc3)cc2)C1=O)c1ccncc1    Non-Toxic
C[C@H](NCc1ccc(OCc2cccc(F)c2)cc1)C(N)=O [SAFINAMIDE]    Non-Toxic
C/C(=N\NCCCN1C(=O)S/C(=C\c2ccc(OCc3ccccc3)cc2)C1=O)c1cccs1    Non-Toxic
C#CCNCCCN1C(=O)S/C(=C/c2ccc([N+](=O)[O-])cc2)C1=O    Toxic
C#CCNCCCN1C(=O)S/C(=C\c2ccc(OCc3ccccc3)cc2)C1=O    Non-Toxic

// moving on: another record for Activity
Using the record for `C/C(=N\NCN1C(=O)S/C(=C\c2ccc(OCc3ccccc3)cc2)C1=O)c1cccs1` , state its measured Activity. Non-Toxic

====

Experiment: Permeability of compound by PAMPA-BBB assay
Assay type: ADME
Conditions: read-out: permeability
Metric Name: Papp (×10⁻⁶ cm/s)
Respond numerically; units are ×10⁻⁶ cm/s and should not be typed.

Give me measured Papp, please, for this compound: `C#CCNCCCN1C(=O)S/C(=C/c2ccc([N+](=O)[O-])cc2)C1=O` 7.09

Return the recorded Papp value; entry: `C/C(=N\NCN1C(=O)S/C(=C\c2ccc(OCc3ccccc3)cc2)C1=O)c1ccncc1` 13

For the compound `C/C(=N\NCCCN1C(=O)S/C(=C\c2ccc(OCc3ccccc3)cc2)C1=O)c1cccs1` , give its reported Papp. 12.1
